# assay target: recombinant human IL-6 (human, UniProt P05231 30-212)
# Sequence (P05231 30-212 limits assumed): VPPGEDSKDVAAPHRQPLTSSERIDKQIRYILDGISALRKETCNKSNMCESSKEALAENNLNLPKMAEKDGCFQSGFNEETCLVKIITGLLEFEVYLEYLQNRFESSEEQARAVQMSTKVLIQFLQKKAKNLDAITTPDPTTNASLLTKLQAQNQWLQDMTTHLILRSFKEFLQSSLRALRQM
# method description: SPR, IL-6 on CM5 chip, Fab lysate, 25 C
koff listing for selected binders.
Answer by giving the amount and then stating its unit.

binder	koff
anti-IL-6 Fab, heavy chain T63G (Fab, V domains shown, see m39) VH: EVQLVESGGGLVQPGGSLRLSCAASGFTFSPFAMSWVRQAPGKGLEWVAKISPGGSWTYYSDGVTGRFTFSLDTSKSTAYLQMNSLRAEDTAVYYCARQLWGYYALDIWGQGTLVTVSS VL: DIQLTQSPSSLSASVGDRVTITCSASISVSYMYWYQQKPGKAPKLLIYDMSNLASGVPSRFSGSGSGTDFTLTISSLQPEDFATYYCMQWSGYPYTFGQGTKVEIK	0.0539 s⁻¹

query: Which koff is listed for anti-IL-6 Fab, heavy chain S61R (Fab, V domains shown, see m39) VH: EVQLVESGGGLVQPGGSLRLSCAASGFTFSPFAMSWVRQAPGKGLEWVAKISPGGSWTYYRDTVTGRFTFSLDTSKSTAYLQMNSLRAEDTAVYYCARQLWGYYALDIWGQGTLVTVSS VL: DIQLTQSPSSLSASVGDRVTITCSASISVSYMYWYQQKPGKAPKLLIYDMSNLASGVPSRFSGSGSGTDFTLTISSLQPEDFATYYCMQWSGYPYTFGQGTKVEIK ?
result: 0.00585 s⁻¹
